// values below are reported IC50
# system: Interstitial collagenase (Homo sapiens, UniProt P03956)
# Sequence (P03956 whole entry): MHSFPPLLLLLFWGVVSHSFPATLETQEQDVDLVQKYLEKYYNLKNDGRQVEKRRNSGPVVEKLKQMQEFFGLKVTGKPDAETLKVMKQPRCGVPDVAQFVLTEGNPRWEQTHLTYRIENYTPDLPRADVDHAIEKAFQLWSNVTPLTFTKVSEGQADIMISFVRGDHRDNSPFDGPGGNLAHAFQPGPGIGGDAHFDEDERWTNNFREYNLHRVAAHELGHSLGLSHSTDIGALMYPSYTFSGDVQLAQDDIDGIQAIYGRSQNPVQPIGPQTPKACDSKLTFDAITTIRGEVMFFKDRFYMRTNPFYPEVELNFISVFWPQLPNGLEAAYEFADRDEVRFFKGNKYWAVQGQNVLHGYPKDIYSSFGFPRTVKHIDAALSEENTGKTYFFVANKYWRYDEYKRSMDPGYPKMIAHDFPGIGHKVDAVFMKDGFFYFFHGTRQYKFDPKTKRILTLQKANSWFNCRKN

These recorded examples may help you get a feel for the data.
Cc1ccccc1COc1ccc(S(=O)(=O)N2CCC[C@@](C)(O)[C@@H]2C(=O)NO)cc1 :: 0.31 µM
C[C@@]1(O)CCCN(S(=O)(=O)c2ccc(OCc3cccc(Cl)c3)cc2)[C@H]1C(=O)NO :: 0.86 µM
C[C@]1(O)CCCN(S(=O)(=O)c2ccc(OCc3ccc(F)cc3)cc2)[C@H]1C(=O)NO :: 1.1 µM
C[C@@]1(O)CCCN(S(=O)(=O)c2ccc(OCc3cccc4ccncc34)cc2)[C@H]1C(=O)NO :: 7.8 µM

Proceeding to the next compound to report its IC50.
Q: Entry Cc1ncccc1COc1ccc(S(=O)(=O)N2CCC[C@@](C)(O)[C@@H]2C(=O)NO)cc1 has what IC50?
Result: 1.6 µM
